measured-on: recombinant human Myt1 (full length PKMYT1) (Homo sapiens (Human))
assay-procedure: Recombinant human Myt1 kinase assay (ADP-Glo)
assay-conditions: 10 μM ATP
readout: IC50 (nM)

{"molecule": "Cc1ccc(O)cc1-c1nc(-c2ccc(N3CCN(CCO)CC3)cc2)nc(C(N)=O)c1N", "unit-tag": "nM", "endpoint-result": 24}
{"molecule": "Cc1ccc2[nH]ncc2c1-c1cc(-c2csc(OC3COC3)n2)nc(C(N)=O)c1N", "unit-tag": "nM", "endpoint-result": 40}
{"molecule": "Cc1ccc2[nH]ncc2c1-c1nc(-c2ccc(F)cc2Nc2ncccc2Cl)nc(C(N)=O)c1N", "unit-tag": "nM", "endpoint-result": 21}
{"molecule": "Cc1ccc(O)cc1-c1nc(-c2ccc(N)nc2)nc(C(N)=O)c1N", "unit-tag": "nM", "endpoint-result": 52}
{"molecule": "Cc1ccc2[nH]ncc2c1-c1cc(-c2ccnc(OCC(F)(F)F)n2)nc(C(N)=O)c1N", "unit-tag": "nM", "endpoint-result": 6}
{"molecule": "Cc1nnc(COc2cccc(-c3cc(-c4c(C)ccc5[nH]ncc45)c(N)c(C(N)=O)n3)n2)o1", "unit-tag": "nM", "endpoint-result": 21}
{"molecule": "Cc1ccc2[nH]ncc2c1-c1cc(-c2cccc(O[C@@H]3CCOC3)n2)nc(C(N)=O)c1N (atropisomer, axis not shown)", "unit-tag": "nM", "endpoint-result": 2}

====

Parameter pIC50: see the listing below.
measured-on: recombinant human Myt1 (full length PKMYT1) (Homo sapiens (Human), UniProt Q99640)
Sequence (Q99640 whole entry): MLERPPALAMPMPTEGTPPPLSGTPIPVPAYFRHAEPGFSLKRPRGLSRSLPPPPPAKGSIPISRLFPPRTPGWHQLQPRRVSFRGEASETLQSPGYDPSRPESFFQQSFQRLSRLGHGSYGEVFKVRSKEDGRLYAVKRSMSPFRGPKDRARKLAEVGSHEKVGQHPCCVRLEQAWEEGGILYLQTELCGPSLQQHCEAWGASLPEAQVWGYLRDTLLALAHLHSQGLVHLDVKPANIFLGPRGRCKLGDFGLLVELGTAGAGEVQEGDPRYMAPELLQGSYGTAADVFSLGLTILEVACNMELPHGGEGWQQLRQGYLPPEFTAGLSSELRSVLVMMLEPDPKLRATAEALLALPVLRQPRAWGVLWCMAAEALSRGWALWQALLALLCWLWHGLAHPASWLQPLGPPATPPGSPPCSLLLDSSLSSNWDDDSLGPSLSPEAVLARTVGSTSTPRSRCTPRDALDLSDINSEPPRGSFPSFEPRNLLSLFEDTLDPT
assay-procedure: Recombinant human Myt1 kinase assay (ADP-Glo)
assay-conditions: 10 μM ATP
pIC50: −log10 of the molar value.

{"compound": "Cc1ccc2[nH]ncc2c1-c1cc(-c2cccc(O[C@H]3CCOC3)n2)nc(C(N)=O)c1N (atropisomer, axis not shown)", "measured-on": "recombinant human Myt1 (full length PKMYT1) (Homo sapiens (Human), UniProt Q99640)", "pIC50": 8.40}
{"compound": "Cc1ccc2[nH]ncc2c1-c1nc(-c2cc(F)c(F)cc2NC(=O)C2(C)CC2)nc(C(N)=O)c1N", "measured-on": "recombinant human Myt1 (full length PKMYT1) (Homo sapiens (Human), UniProt Q99640)", "pIC50": 8.10}
{"compound": "Cc1ccc2[nH]ncc2c1-c1nc(-c2cccnc2N)nc(C(N)=O)c1N", "measured-on": "recombinant human Myt1 (full length PKMYT1) (Homo sapiens (Human), UniProt Q99640)", "pIC50": 7.92}
{"compound": "COc1cc(-c2nc(C(N)=O)c(N)c(-c3cc(O)ccc3C)n2)ccn1", "measured-on": "recombinant human Myt1 (full length PKMYT1) (Homo sapiens (Human), UniProt Q99640)", "pIC50": 7.82}

====

measured-on: recombinant human Myt1 (full length PKMYT1) (Homo sapiens (Human), UniProt Q99640)
assay-procedure: Recombinant human Myt1 kinase assay (ADP-Glo)
assay-conditions: 10 μM ATP
Below, each of the molecules is paired with its reported IC50 value.

{"molecule": "CCNc1ccccc1-c1nc(C(N)=O)c(N)c(-c2c(C)ccc3[nH]ncc23)n1 [Compound 442]", "measured-on": "recombinant human Myt1 (full length PKMYT1) (Homo sapiens (Human), UniProt Q99640)", "unit-tag": "nM", "value-modifier": "=", "IC50": 4}
{"molecule": "COc1cccc(-c2nc(C(N)=O)c(N)c(-c3c(C)ccc4[nH]ncc34)n2)c1 [Compound 141]", "measured-on": "recombinant human Myt1 (full length PKMYT1) (Homo sapiens (Human), UniProt Q99640)", "unit-tag": "nM", "value-modifier": "=", "IC50": 23}
{"molecule": "Cc1ccc2[nH]ncc2c1-c1nc(-c2cc(F)cc3c2NC(=O)C3)nc(C(N)=O)c1N [Compound 393]", "measured-on": "recombinant human Myt1 (full length PKMYT1) (Homo sapiens (Human), UniProt Q99640)", "unit-tag": "nM", "value-modifier": "=", "IC50": 6}
{"molecule": "Cc1ccc2[nH]ncc2c1-c1nc(-c2cccnc2N[C@H](c2cccnc2)C(F)F)nc(C(N)=O)c1N [Compound 936]", "measured-on": "recombinant human Myt1 (full length PKMYT1) (Homo sapiens (Human), UniProt Q99640)", "unit-tag": "nM", "value-modifier": "=", "IC50": 2}
{"molecule": "Cc1ccc2[nH]ncc2c1-c1nc(-c2ccc(C3(C#N)CC3)cc2)nc(C(N)=O)c1N [Compound 125]", "measured-on": "recombinant human Myt1 (full length PKMYT1) (Homo sapiens (Human), UniProt Q99640)", "unit-tag": "nM", "value-modifier": "=", "IC50": 51}
{"molecule": "Cc1cc(-c2nc(C(N)=O)c(N)c(-c3cc(O)ccc3C)n2)cc(C)n1 [Compound 11]", "measured-on": "recombinant human Myt1 (full length PKMYT1) (Homo sapiens (Human), UniProt Q99640)", "unit-tag": "nM", "value-modifier": "=", "IC50": 54}
{"molecule": "Cc1ccc2[nH]ncc2c1-c1cc(-c2ccnc(N[C@H](CO)Cc3ccccc3)n2)nc(C(N)=O)c1N (atropisomer, axis not shown) [Compound 370]", "measured-on": "recombinant human Myt1 (full length PKMYT1) (Homo sapiens (Human), UniProt Q99640)", "unit-tag": "nM", "value-modifier": "=", "IC50": 869}
{"molecule": "Cc1ccc(O)c(C)c1-c1cc(-c2cnccn2)cc(C(N)=O)c1N [Compound 84]", "measured-on": "recombinant human Myt1 (full length PKMYT1) (Homo sapiens (Human), UniProt Q99640)", "unit-tag": "nM", "value-modifier": "=", "IC50": 10}
{"molecule": "Cc1ccc(O)c(C)c1-c1cc(-c2ccns2)cc(C(N)=O)c1N [Compound 92]", "measured-on": "recombinant human Myt1 (full length PKMYT1) (Homo sapiens (Human), UniProt Q99640)", "unit-tag": "nM", "value-modifier": "=", "IC50": 5}
{"molecule": "Cc1ccc(O)cc1-c1nc(-c2cccc(N3CCOCC3)c2)nc(C(N)=O)c1N [Compound 27]", "measured-on": "recombinant human Myt1 (full length PKMYT1) (Homo sapiens (Human), UniProt Q99640)", "unit-tag": "nM", "value-modifier": "=", "IC50": 11}
{"molecule": "Cc1ccc2[nH]ncc2c1-c1cc(-c2cccc(OCc3cscn3)n2)nc(C(N)=O)c1N [Compound 278]", "measured-on": "recombinant human Myt1 (full length PKMYT1) (Homo sapiens (Human), UniProt Q99640)", "unit-tag": "nM", "value-modifier": "=", "IC50": 5}
{"molecule": "Cc1ccc2[nH]ncc2c1-c1cc(-c2ccnc(OCc3cncn3C3CCCCC3)n2)nc(C(N)=O)c1N [Compound 328]", "measured-on": "recombinant human Myt1 (full length PKMYT1) (Homo sapiens (Human), UniProt Q99640)", "unit-tag": "nM", "value-modifier": "=", "IC50": 18}
{"molecule": "Cc1ccc2[nH]ncc2c1-c1cc(C(N)=O)nc(-c2ccccc2)n1 [Compound 76]", "measured-on": "recombinant human Myt1 (full length PKMYT1) (Homo sapiens (Human), UniProt Q99640)", "unit-tag": "nM", "value-modifier": ">", "IC50": 2000}
{"molecule": "Cc1ccc2[nH]ncc2c1-c1cc(-c2ccnc(OCc3ncccn3)n2)nc(C(N)=O)c1N [Compound 235]", "measured-on": "recombinant human Myt1 (full length PKMYT1) (Homo sapiens (Human), UniProt Q99640)", "unit-tag": "nM", "value-modifier": "=", "IC50": 7}
{"molecule": "Cc1ccc2[nH]ncc2c1-c1nc(-c2cccc(N3CCCC3)c2)nc(C(N)=O)c1N [Compound 142]", "measured-on": "recombinant human Myt1 (full length PKMYT1) (Homo sapiens (Human), UniProt Q99640)", "unit-tag": "nM", "value-modifier": "=", "IC50": 54}
{"molecule": "Cc1ccc2[nH]ncc2c1-c1cc(-c2ccnnc2)nc(C(N)=O)c1N [Compound 86]", "measured-on": "recombinant human Myt1 (full length PKMYT1) (Homo sapiens (Human), UniProt Q99640)", "unit-tag": "nM", "value-modifier": "=", "IC50": 58}

====

measured-on: recombinant human Myt1 (full length PKMYT1) (Homo sapiens (Human), UniProt Q99640)
assay-procedure: Recombinant human Myt1 kinase assay (ADP-Glo)
assay-conditions: 10 μM ATP
Reported values of log10 IC50 for individual entries
readout: log10 IC50 (log10 of the value in nM)

{"compound": "COC(C)(C)COc1nccc(-c2cc(-c3c(C)ccc4[nH]ncc34)c(N)c(C(N)=O)n2)n1", "readout": "log10 IC50", "endpoint-result": 0.78}
{"compound": "Cc1ccc2[nH]ncc2c1-c1cc(-c2ccnc(N[C@H]3CC[C@H](O)CC3)n2)nc(C(N)=O)c1N", "readout": "log10 IC50", "endpoint-result": 0.60}
{"compound": "Cc1ccc2[nH]ncc2c1-c1cc(-c2ccnc(NCC3(O)CC3)n2)nc(C(N)=O)c1N", "readout": "log10 IC50", "endpoint-result": 1.20}
{"compound": "Cc1ccc2[nH]ncc2c1-c1cc(-c2ccnc(OCc3ncccn3)n2)nc(C(N)=O)c1N [Compound 251]", "readout": "log10 IC50", "endpoint-result": 0.48}
{"compound": "Cc1ccc2[nH]ncc2c1-c1nc(-c2ccccc2NC(=O)C2(C)CCC2)nc(C(N)=O)c1N", "readout": "log10 IC50", "endpoint-result": 0.85}
{"compound": "Cc1ccc2[nH]ncc2c1-c1nc(-c2ccc(F)cc2Nc2cc(C#N)ccn2)nc(C(N)=O)c1N", "readout": "log10 IC50", "endpoint-result": 1.08}
{"compound": "Cc1ccc2[nH]ncc2c1-c1cc(-c2cc[nH]c(=O)c2)nc(C(N)=O)c1N", "readout": "log10 IC50", "endpoint-result": 1.68}
{"compound": "Cc1ccc2[nH]ncc2c1-c1cc(-c2cccc(OCc3cncnc3)n2)nc(C(N)=O)c1N", "readout": "log10 IC50", "endpoint-result": 0.85}
